# assay_details: NCI Yeast Anticancer Drug Screen. Data for the CLN2oe strain (AID 163);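 further: 0% = growth of vehicle-only control cultures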
# test_settings: S. cerevisiae CLN2oe strain, at 11.0 µM, active compounds read high
This is part of a sample that, as a whole, favours compounds with a hit. Of some 79,000 tested, about 15% had one in any assay. Starred links: 1 amine or outer side, 2 acyl side, 3 side chain; linkers in the order of their positions; H or OH if unused. Positions of bridges follow the written chain, without caps; N, C: chain ends. Non-standard residues stand in square brackets, D forms with d. Residues, ends and D or L forms follow the SMILES beside them. Chains are numbered I, II in the order given. Actinocin(9to1) = Cc1c2oc3c(C)ccc(C(=O)[*:1])c3nc-2c(C(=O)[*:2])c(N)c1=O; aThr = C[C@H](O)[C@H](N)C(=O)O; NMeV = CN[C@H](C(=O)O)C(C)C; Sar = CNCC(=O)O

| molecule | unit_name | growth inhibition |
| --- | --- | --- |
| O=C(N/N=C/c1ccc2c(c1)CCC2)c1ccccc1[N+](=O)[O-] | % | 21 |
| CN(C)N1C(=O)SCC(c2ccccc2)(c2ccccc2)C1=O | % | 2 |
| O=C(Nn1c(-c2ccccc2)nc2ccccc2c1=O)c1ccc(Cl)cc1 | % | -23 |
| Cc1c2oc3c(C)ccc(C(=O)N[C@@H]4C(=O)N[C@H](C(C)C)C(=O)N5CCC[C@H]5C(=O)N(C)CC(=O)N(C)[C@@H](C(C)C)C(=O)O[C@H]4C)c3nc-2c(C(=O)N[C@@H]2C(=O)N[C@H](C(C)C)C(=O)N3CCC[C@H]3C(=O)N(C)CC(=O)N(C)[C@@H](C(C)C)C(=O)O[C@H]2C)c(N)c1=O (I: [aThr][dV]P[Sar][NMeV] / II: [aThr][dV]P[Sar][NMeV]; ester I:1-I:C, II:1-II:C; linker I:N-II:N via Actinocin(9to1)) | % | 94 |
| O=c1[nH]cc(F)c(=O)[nH]1 | % | 21 |
| CC[N+]1(C)CCC(O)(/C=C/c2ccc(Cl)c(Cl)c2)C(C(=O)/C=C/c2ccc(Cl)c(Cl)c2)C1 (stereo not drawn) | % | 99 |
| O=C(CSS(=O)(=O)O)c1ccccc1 | % | -11 |
| c1cc(Nc2ccc3c(c2)OCO3)c2cc(C3CCCCC3)ccc2n1 | % | -1 |
